- assayed_target: FGFR3 (UniProt P22607)
- Sequence (P22607 whole entry, looked up): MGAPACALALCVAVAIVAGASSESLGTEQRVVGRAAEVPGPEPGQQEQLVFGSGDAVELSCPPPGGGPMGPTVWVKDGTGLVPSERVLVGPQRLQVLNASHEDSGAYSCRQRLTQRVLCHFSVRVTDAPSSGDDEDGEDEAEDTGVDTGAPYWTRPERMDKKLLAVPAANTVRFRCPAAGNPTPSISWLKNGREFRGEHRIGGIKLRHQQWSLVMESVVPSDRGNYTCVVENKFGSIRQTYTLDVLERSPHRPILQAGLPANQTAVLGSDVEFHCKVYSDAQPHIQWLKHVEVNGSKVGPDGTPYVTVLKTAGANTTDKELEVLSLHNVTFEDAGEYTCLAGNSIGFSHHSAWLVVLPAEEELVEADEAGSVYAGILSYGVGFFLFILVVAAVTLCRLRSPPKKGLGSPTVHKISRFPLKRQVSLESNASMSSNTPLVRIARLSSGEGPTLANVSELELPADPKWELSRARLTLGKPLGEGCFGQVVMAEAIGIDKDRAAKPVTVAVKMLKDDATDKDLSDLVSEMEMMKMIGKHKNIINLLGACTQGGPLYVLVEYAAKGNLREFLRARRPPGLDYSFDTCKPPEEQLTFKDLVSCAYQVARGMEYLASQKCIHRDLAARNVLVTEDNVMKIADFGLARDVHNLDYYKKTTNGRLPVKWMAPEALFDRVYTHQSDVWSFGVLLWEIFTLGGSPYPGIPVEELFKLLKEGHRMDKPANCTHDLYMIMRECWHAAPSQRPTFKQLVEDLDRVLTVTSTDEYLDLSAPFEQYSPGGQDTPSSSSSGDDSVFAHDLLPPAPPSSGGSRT
- protocol_details: phosphorylation enrichment, bacterial display (enrichment ratio); higher = better substrate or ligand; peptides without Tyr show the background;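 note: 11-residue human phosphosite peptides and single-mutation variants displayed on the E. coli surface, counted by deep sequencing, each peptide's frequency after selection divided by its frequency in the unselected input library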;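 note: frequency after pTyr selection over input frequency; kinase dosed for 20-30% of maximal phosphorylation in three min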

{"columns": ["residue_codes", "phosphorylation enrichment"],
 "data": [
  ["ADLLDYIKALN [HPRT1_Y81]", 0.695],
  ["ESLRSYDVMDV [KCNQ2_Y562_P561S]", 0.993],
  ["QFKDKYLAKHN [CASK_Y712_YF]", 0.298],
  ["HLRAGYIIPLQ [GAA_Y822]", 0.534],
  ["FNVLQYVVPKV [EIF3A_Y382_E386K]", 1.02],
  ["ATDLAYYLVRK [ASL_Y375]", 4.21],
  ["DEEYEYMNRRR [ERBB3_Y1199]", 0.629],
  ["AEQDWYHGAIP [FER_Y461]", 1.54],
  ["EKDSNYCLCRT [ASIC2_Y357]", 0.605],
  ["SKLTIYDARPS [MTM1_Y277]", 0.751],
  ["PTTKTYFPRFD [HBA1_Y43_H46R]", 0.432],
  ["AALRLYHVSDS [VIL1_Y256_K254R]", 0.763],
  ["IKIMGSSIRTI [IDS_Y490_Y490S]", 0.45],
  ["HVSISYDIPLT [GAB1_Y307_P311L]", 1.53],
  ["IFSGIYFKPES [L2HGDH_Y102_H98Y_YF]", 1.4],
  ["QEIATYRPLLE [KRT14_Y415_R417P]", 0.834],
  ["PTTKTYFPQFD [HBA1_Y43_H46Q]", 0.636],
  ["GKTQQYECKWY [BCR_Y751_D752E]", 0.642],
  ["RFVTRYIFNRE [HLA-DQB1_Y62_YF]", 0.796],
  ["FPLELYERVRI [PRKCG_Y312_M317I_YF]", 0.652],
  ["DQLVKHGVNPG [TMPO_Y127_Y127H]", 0.377],
  ["RLSVDCGKKSK [TUBA4A_Y161_Y161C]", 0.788],
  ["SIKDKYVTALF [KCNH2_Y611_YF]", 0.488],
  ["VYAANYYKLLG [ROR2_Y645_D644N]", 5.33],
  ["IWGKKYPTCNS [PTPRZ1_Y53_N48I]", 0.607],
  ["PSGPMYRGAVP [ASAH1_Y43_T42M]", 0.573],
  ["AAILGYCRGEA [XPC_Y669]", 0.556],
  ["LRFDVYGGENE [STOX1_Y610_E608D_YF]", 0.629],
  ["SAAAIYTVRHP [PMP22_Y117]", 0.43],
  ["SLIDGYYRLTE [JAK2_Y372_A377E]", 0.997],
  ["CQAHGYSCQLI [STK11_Y156_F157S]", 0.531],
  ["HNLYSYPTKHE [MYO3A_Y1396]", 0.838],
  ["PLQSEYSSIST [ITGB4_Y1760_T1764S]", 0.925],
  ["GIFEDYVEGLR [MYL6_Y89_T85I_YF]", 0.793],
  ["PVQAAYKKVVA [HBB_Y131_Q132K]", 0.485],
  ["FCRIMYDIFPF [INTS13_Y67_YF]", 0.743],
  ["EPDSLYGCGGG [ATM_Y2019]", 0.674],
  ["DYSLKYATDIP [APC_Y1183]", 0.913],
  ["AEVIWYKGDEV", 0.784],
  ["IDGLEYLHSQG [STK11_Y166]", 0.637],
  ["ARGMEYLAEQK [MST1R_Y1198_G1195S]", 0.826],
  ["LASSEYPVRRR [GALK1_Y236]", 0.496],
  ["PKSLFYLLLKL [TRPC6_Y775]", 1.48],
  ["GLRYGYGGLGG [KRTAP20-2_Y15_V17G]", 0.412],
  ["IKKFKYRIEEH [GJA1_Y137_G138R]", 0.495],
  ["KELAPYDENRF [RPS19_Y48_W52R]", 0.79],
  ["PNATLYKMTSI [SERPINA7_Y40_S43T]", 0.668],
  ["KPLMPCMRFSR [SMARCE1_Y73_Y73C_YF]", 0.502],
  ["LSSNLYYRWLT [CNGA3_Y168_P163L]", 17.8],
  ["ALAAPYVLYPG [CEFIP_Y1332]", 2.55],
  ["RKVLVYDKLNV [ROR2_Y624_N620K]", 0.44],
  ["GRDQPYSGAGD [TYRO3_Y828]", 0.357],
  ["GELQGYDIMEP [MSH2_Y863_S860L]", 0.666],
  ["IGGHAYGDQFR [IDH1_Y135_R132G_YF]", 0.405],
  ["ALERPYTSKHS [NANS_Y71]", 0.398],
  ["SDPIIYTLENV [ADGRE1_Y534_I539V]", 0.663],
  ["RILDVYIFLGP [GAA_Y340_G335R]", 0.672],
  ["PGPQSYPTVTG [PAX5_Y299_I301T]", 0.539]
]}
